- Tested target: T1, huNectin4-His (human, UniProt Q96NY8 32-349)
- T1 construct: Immobilized on the SPR chip; also called humanNectin4; human Nectin4; not shown: His tag
- T1 sequence (looked up): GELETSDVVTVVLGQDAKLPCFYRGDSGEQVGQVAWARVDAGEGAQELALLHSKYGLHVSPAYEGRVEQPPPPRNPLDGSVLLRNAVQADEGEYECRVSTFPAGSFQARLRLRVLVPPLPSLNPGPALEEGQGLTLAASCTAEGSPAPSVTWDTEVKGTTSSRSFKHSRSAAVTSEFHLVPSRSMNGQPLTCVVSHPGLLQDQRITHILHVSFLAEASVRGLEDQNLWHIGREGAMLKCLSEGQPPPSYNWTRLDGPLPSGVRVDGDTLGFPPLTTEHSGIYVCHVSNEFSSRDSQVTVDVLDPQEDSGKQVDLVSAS
- Assay details: SPR, huNectin4-His immobilized, pH 6.0
Assay readout: koff (s⁻¹)
Use s⁻¹ as the unit, but write only the number.

Task item: I'd like to know its koff. The binder in question is BAP-143-00-06 (antibody, V domains shown, Used as a conjugate with a linker payload (CAB ADC)) VH: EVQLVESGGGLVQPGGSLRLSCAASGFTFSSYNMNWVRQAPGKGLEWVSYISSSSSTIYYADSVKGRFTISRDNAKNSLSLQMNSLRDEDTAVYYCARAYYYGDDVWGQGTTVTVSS VL: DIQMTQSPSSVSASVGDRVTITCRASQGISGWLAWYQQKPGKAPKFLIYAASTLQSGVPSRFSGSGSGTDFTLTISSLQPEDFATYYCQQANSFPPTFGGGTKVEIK
Reply: 0.00114
